As shown below, each of these variants has a reported protein stability index value.
B1: FUT8 (parent)
chain: YAHQPRTADEIPMEPGDIIGVAGN

# Variants of: B1
# EXPERIMENT SUMMARY: protein stability index of a GFP-peptide fusion (GPS, HEK-293T) (PSI 1-6); higher = more stable;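 further: lentivirally expressed fusions sorted by FACS into six bins by GFP to DsRed ratio, PSI derived from sequencing read proportions per bin multiplied by bin number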
# EXPERIMENTAL SETUP: c terminus: a fixed tail appended
Would you mind answering with just the numeric figure?

Looking up P15C , I see its protein stability index listed as 3.58

Looking up E10D , I see its protein stability index listed as 4.18

Looking up I11N , I see its protein stability index listed as 4.26

Looking up V21F , I see its protein stability index listed as 3.8

Looking up P15H , I see its protein stability index listed as 3.86

Looking up P15N , I see its protein stability index listed as 4.08

Looking up H3Y , I see its protein stability index listed as 3.45

Looking up P12F , I see its protein stability index listed as 3.27

Looking up Y1Q , I see its protein stability index listed as 5.12

Looking up H3S , I see its protein stability index listed as 4.36

Looking up G23K , I see its protein stability index listed as 4.19

Looking up G20K , I see its protein stability index listed as 4.34

Looking up D9N , I see its protein stability index listed as 3.65

Looking up V21E , I see its protein stability index listed as 4.62

Looking up P15Q , I see its protein stability index listed as 4.25

Looking up M13E , I see its protein stability index listed as 4.73

Looking up E14N , I see its protein stability index listed as 3.25

Looking up G20S , I see its protein stability index listed as 3.86

Looking up G20A , I see its protein stability index listed as 4.26

Looking up A2C , I see its protein stability index listed as 4.03

Looking up A2G , I see its protein stability index listed as 4.69

Looking up H3Q , I see its protein stability index listed as 4.39

Looking up I19M , I see its protein stability index listed as 4.54
